meta.source: patent US20160009697A1

assay target: D2 receptor (Homo sapiens, UniProt P14416)
Construct: membrane homogenates
Sequence (P14416 whole entry): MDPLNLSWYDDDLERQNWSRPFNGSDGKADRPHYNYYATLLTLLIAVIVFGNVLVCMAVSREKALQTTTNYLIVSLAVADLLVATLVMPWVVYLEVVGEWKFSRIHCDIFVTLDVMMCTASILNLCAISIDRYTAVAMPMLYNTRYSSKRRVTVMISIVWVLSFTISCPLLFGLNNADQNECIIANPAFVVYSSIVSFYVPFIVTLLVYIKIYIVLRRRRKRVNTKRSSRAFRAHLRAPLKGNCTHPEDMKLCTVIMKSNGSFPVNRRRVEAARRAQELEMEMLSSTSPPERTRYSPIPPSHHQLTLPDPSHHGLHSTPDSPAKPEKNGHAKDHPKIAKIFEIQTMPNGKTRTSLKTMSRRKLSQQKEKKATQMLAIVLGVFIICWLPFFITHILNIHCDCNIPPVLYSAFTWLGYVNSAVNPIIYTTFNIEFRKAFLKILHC
measurement description: Dopamine receptor D2 binding affinity, competitive radioligand binding with [3H]methyl-spiperone
conditions used: membranes of recombinant cells, [3H]methyl-spiperone 0.2 nM, 60 min at 37° C.
measurement label: Ki (µM)

> print(dat)
                                   compound  measurement.label  relation.qualifier  recorded.number
1  COc1ccc(-c2cc(C(C)C3CCOCC3)nc(N3CCN(C)CC3)c2)cc1 (stereo not shown)                 Ki                   >               10
2  CN1CCN(c2cc(-c3ccccn3)cc(CC3CCOCC3)n2)CC1                 Ki                   =             1.18
3  CN1CCN(c2cc(-c3ccc4ccccc4n3)cc(CC3CCOCC3)n2)CC1                 Ki                   =              4.1
4  COc1ccc(-c2cc(CC3CCOCC3)nc(N3CCNC(C)(C)C3)c2)cc1                 Ki                   >               10
5  CN1CCN(c2cc(-c3cscn3)cc(CC3CCOCC3)n2)CC1                 Ki                   >               10
6  COc1ccc(-c2cc(CC3CCOCC3)nc(N3CCC(N)CC3)c2)cc1                 Ki                   >               10
7  COc1ccc(-c2cc(CC3CCOCC3)nc(N3CCN(C)CC3)c2)c(F)c1                 Ki                   =             1.25
